The entries below are paired with their reported pIC50.
Molecular target: Amine oxidase [flavin-containing] A (Homo sapiens)
Sequence (P21397 whole entry): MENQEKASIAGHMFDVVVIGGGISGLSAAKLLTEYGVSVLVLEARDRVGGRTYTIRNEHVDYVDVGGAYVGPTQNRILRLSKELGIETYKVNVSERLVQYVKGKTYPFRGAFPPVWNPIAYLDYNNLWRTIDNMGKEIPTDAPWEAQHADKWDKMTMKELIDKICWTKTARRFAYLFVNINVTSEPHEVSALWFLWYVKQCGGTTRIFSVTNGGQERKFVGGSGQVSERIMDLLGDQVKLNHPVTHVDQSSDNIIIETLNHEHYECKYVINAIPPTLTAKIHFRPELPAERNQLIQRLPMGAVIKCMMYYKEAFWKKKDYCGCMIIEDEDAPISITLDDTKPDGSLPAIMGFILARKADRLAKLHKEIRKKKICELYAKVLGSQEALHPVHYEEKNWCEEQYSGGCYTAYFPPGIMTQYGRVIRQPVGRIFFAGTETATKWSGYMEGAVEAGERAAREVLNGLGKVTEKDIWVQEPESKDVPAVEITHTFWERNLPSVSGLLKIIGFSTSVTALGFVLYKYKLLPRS
Test: Inhibition of human recombinant MAO-A using tyramine as substrate preincubated with enzyme for 30 mins followed by incubation with substrate for 30 mins by Amplex Red reagent based fluorometric method
pIC50: −log10 of the molar value.

compound structure	pIC50
CCNc1nnc(SCC(=O)N(Cc2cccc([N+](=O)[O-])c2)c2ccc(F)cc2)s1	6.47
CC(C)CNc1nnc(SCC(=O)N(Cc2cccc([N+](=O)[O-])c2)c2ccc(F)cc2)s1	5.75
CCCCNc1nnc(SCC(=O)N(Cc2cccc([N+](=O)[O-])c2)c2ccc(F)cc2)s1	5.93
C=CCNc1nnc(SCC(=O)N(Cc2cccc([N+](=O)[O-])c2)c2ccc(F)cc2)s1	6.30
CC(C)Nc1nnc(SCC(=O)N(Cc2cccc([N+](=O)[O-])c2)c2ccc(F)cc2)s1	5.97
CCCNc1nnc(SCC(=O)N(Cc2cccc([N+](=O)[O-])c2)c2ccc(F)cc2)s1	6.62
COCCNc1nnc(SCC(=O)N(Cc2cccc([N+](=O)[O-])c2)c2ccc(F)cc2)s1	7.22
